experimental.target: T1, human GIP receptor (human, UniProt P48546 22-466)
T1 sequence (looked up): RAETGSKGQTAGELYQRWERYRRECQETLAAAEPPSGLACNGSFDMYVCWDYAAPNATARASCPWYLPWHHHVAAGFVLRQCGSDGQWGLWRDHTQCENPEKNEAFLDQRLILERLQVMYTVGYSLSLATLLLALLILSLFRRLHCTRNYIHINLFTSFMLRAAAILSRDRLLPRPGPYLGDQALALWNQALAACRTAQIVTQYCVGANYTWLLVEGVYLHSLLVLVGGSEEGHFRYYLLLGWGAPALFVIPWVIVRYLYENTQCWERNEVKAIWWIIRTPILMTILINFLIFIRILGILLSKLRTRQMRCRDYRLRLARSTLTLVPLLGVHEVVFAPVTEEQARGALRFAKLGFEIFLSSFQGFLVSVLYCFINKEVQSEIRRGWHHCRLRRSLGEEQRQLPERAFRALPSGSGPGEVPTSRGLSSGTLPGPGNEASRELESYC
method: cell-based or functional assay
Starred links: 1 amine or outer side, 2 acyl side, 3 side chain; linkers in the order of their positions; H or OH if unused. Non-standard residues stand in square brackets, D forms with d. Groups on a side chain read outwards from the residue. *: point of attachment. C20 diacid = O=C(O)CCCCCCCCCCCCCCCCCCC(=O)*; γGlu = O=C(O)[C@H](CCC(=O)[*:2])N[*:1]; Aib = CC(C)(N)C(=O)O
Simple rule here: EC50, hGIP-R level of cAMP (HEK293 cells expressing human GIP R) less than 0.01 nM is Fulfilled, otherwise Not fulfilled.

Please review the following examples before continuing.
>>> answer_label("H-Y[Aib]EGTFISDYSIELDKK([Peg3-Peg3-γGlu-C20 diacid])AAQDFINWLLAGPSSGAPPPS-NH2 [Compound 31]")
"Not fulfilled"
>>> answer_label("H-Y[Aib]EGTFISDYSIELDK([Peg3-Peg3-γGlu-C20 diacid])IAQRAFIEWLLAQGPSSGAPPPS-NH2 [Compound 34]")
"Not fulfilled"
>>> answer_label("H-Y[Aib]EGTFISDYSIELDKIAAQDFVNWLLAGPSSGAPPPSK([Peg3-Peg3-γGlu-C20 diacid])-NH2 [Compound 16]")
"Not fulfilled"
>>> answer_label("YAEGTFISDYSIELDKKAAQDFIEWLLAGPSSGAPPPS (Aib at 2; Lys 17 side chain acylated: K((19-Carboxy-nonadecanoyl)-[(Piperazine-1-yl)-acetyl]-Peg3-Peg3); C-terminal amide (-NH2)) [Compound 33]")
"Not fulfilled"

From here, focus on the item given below.
# input Please check: EC50, hGIP-R level of cAMP (HEK293 cells expressing human GIP R) for H-Y[Aib]EGTFISDYSIELDKK([Peg3-Peg3-γGlu-C20 diacid])AAQDFIEWLLAQGPSSGAPPPS-NH2 [Compound 38] , strictly under 0.01 nM or not?
# output Fulfilled
